All figures here come from the EternaBench riboswitch data.

system: MS2 coat protein; assay: apparent Kd, MS2 coat protein; higher = weaker binding; RNA-MaP array; details: designed as: OFF switch for flavin mononucleotide; no ligand
MEASUREMENT_NAME: apparent Kd (nM)
Answers are plain numbers, in nM.

Sample answers from the record:
# CHAIN_SEQUENCE, TGT, apparent Kd, nM
measured = [
    ("UAAGCACAUGAGGAUCACCCAUGUGAGGAUAUGAGUGUCGGUCGAGAAGAGCGUCCAAUCAGAAGGCACAGGAU", "MS2 coat protein", 12.9),
    ("AUUCCAAUAGGAUAUACAUGAGGAUCACCCAUGUGAUGAGCCCGUAAGACAGACGUCAGUAGAAGGAUUAGGAA", "MS2 coat protein", 24.5),
    ("GAUCGCAUCGUGAGGAUAUGAAAUGCCACUCAAAUACAGAAGGCACAUGAGGAUCACCCAUGUCUAGACAAGAG", "MS2 coat protein", 25.9),
]

Now let's try a different one.
Per the records, this sequence ( UCCCUGCAAGGAUAUACAUGAGGAUCACCCAUGUUUACACACGAAAAUUUGGAGAUAGGUAGAAGGUGCAUUUU ) has apparent Kd equal to 12.6

###

tested on: MS2 coat protein; assay: apparent Kd, MS2 coat protein; higher = weaker binding; RNA-MaP array; FMN 200 µM where present; details: designed as: OFF switch for flavin mononucleotide; no ligand
MEASUREMENT_NAME: apparent Kd

# CHAIN_SEQUENCE, RESULT
measured = [
    ("ACUAAACGAGGAUAUACUGACAGGCCUCAGACAUACAUCAAACAUGAGGAUCACCCAUGUAGAAGGCGUAAACU", "37.2 nM"),
    ("GCUGCGUACGUAGGAUAUACAUGAGGAUCACCCAUGUAACUCGGACUCUAAGCGGGUGCGCGCAUGUAGAAGGACGGGCGAGCC", "33.3 nM"),
    ("CAUUAAUUCAUUAUAGUAAUUAUACAGGAUAUGUUACAUGAGGAUCACCCAUGUAUUCAUGGUAAACAGAAGGGUAAUACUAGA", "12.3 nM"),
]

Per the records, this sequence ( GUAAAUCAUGUAGGAUAUGCAUGGCGAAGCUACGCAGAAGGACAUGAGGAUCACCCAUGUCUGUCCGUCUGCGUACAGACGGAC ) has apparent Kd equal to 25.6 nM

###

Exercise: state measured apparent Kd for each of the sequences provided.
system: MS2 coat protein; assay: apparent Kd, MS2 coat protein; higher = weaker binding; RNA-MaP array; FMN 200 µM where present; conditions: ligand present: flavin mononucleotide; designed as: ON switch for flavin mononucleotide
Field note: include the unit after the figure.

Sample answers from the record:
# CHAIN_SEQUENCE, apparent Kd
data = [
    ("AUGGAUAUCACAGGAUAUGCCAUGGAUACCAUGGCAGAAGGGUGAUCCAUCCUAUGUAAAUACAUGAGGAUCACCCAUGUGUCC", "13.7 nM"),
    ("GAAUUCGCAUGAGGAUAUGCACUCAUUUCAUGUGCAGAAGGUAUUUCAUUAGACAUGAGGAUCACCCAUGUAUUGGUCAUUAAC", "14.7 nM"),
    ("GGUACCAUCACAGGAUAUGCUUUUCUUUGGGAAGCAGAAGGGUGUAACAUGAGGAUCACCCAUGUGGUGCCAGGGCGUGAGCCC", "14.7 nM"),
    ("ACAGAGCCUGACAUGAGGAUCACCCAUGUUAGAUUGUUAUGUUAGGAUAUUGUCUAGCAACUAGACAAGAAGGGAUGCUCUGUG", "14.3 nM"),
]

Now let's try a different one.
Field apparent Kd (system: MS2 coat protein) for entry CGCUACUACCAGAAGGACAUGAGGAUCACCCAUGUAGGAUAUGGGUUACACGUUCCUGUGUUUUGUUACUACGCUACGUAUGCG = 29 nM
